# IC50 annotations
- Test system: MES SA (uterine sarcoma cell line)
- PROTOCOL_DETAILS: In vitro cytotoxicity assay (CellTiter-Glo, 72 hours), MES SA
- Format: cell-based
- TEST_SETTINGS: Homo sapiens, MES-SA, 72 h, read-out: MES SA, IC50 Value in nM

{"COMPOUND": "COC(=O)C12C3C4C1C1C2C3C41NC(=O)c1csc([C@@H](C[C@H](C(C)C)N(C)C(=O)[C@@H](NC(=O)[C@H]2CCCCN2C)C2CC2)OC(C)=O)n1 (stereo partly drawn)", "IC50": "> 1000 nM"}
{"COMPOUND": "CCCCN1CCCC[C@@H]1C(=O)N[C@H](C(=O)N(C)[C@H](CCc1nc(C(=O)N[C@@H](Cc2ccccc2)C[C@H](C)C(=O)OC)cs1)C(C)C)[C@@H](C)CC", "IC50": "> 1000 nM"}
{"COMPOUND": "COC(=O)[C@@H](C)C[C@H](Cc1ccccc1)NC(=O)c1csc(C(=O)C[C@H](C(C)C)N(C)C(=O)[C@@H](NC(=O)[C@H]2CCCCN2C)C(C)C)n1", "IC50": "> 1000 nM"}
{"COMPOUND": "COC(=O)[C@@H](C)C[C@H](Cc1ccccc1)NC(=O)c1csc([C@@H](C[C@H](C(C)C)N(C)C(=O)[C@H](C)NC(=O)[C@H]2CCCCN2C)OC(C)=O)n1", "IC50": "> 1000 nM"}
{"COMPOUND": "CC(=O)O[C@H](C[C@H](C(C)C)N(C)C(=O)[C@@H](NC(=O)[C@H]1CCCCN1C)C(C)C)c1cccc(C(=O)N[C@@H](Cc2ccccc2)C[C@H](C)C(=O)O)n1", "IC50": "2.44 nM"}
{"COMPOUND": "CCCCN1CCCC[C@@H]1C(=O)N[C@H](C(=O)N(C)[C@H](C[C@@H](OC(C)=O)c1nc(C(=O)N[C@@H](Cc2ccccc2)CC(CO)C(=O)OC)cs1)C(C)C)[C@@H](C)CC (stereo partly drawn)", "IC50": "> 1000 nM"}
{"COMPOUND": "CCOC(=O)[C@@H](C)C[C@H](Cc1ccccc1)NC(=O)c1csc([C@@H](C[C@H](C(C)C)N(C)C(=O)[C@@H](NC(=O)[C@H]2CCCCN2C)C(C)(C)CC)OC(C)=O)n1", "IC50": "0.95 nM"}
{"COMPOUND": "COC(=O)[C@@H](C)C[C@H](Cc1ccccc1)NC(=O)c1csc([C@H](O)C[C@H](C(C)C)N(C)C(=O)[C@@H](NC(=O)[C@H]2CCCCN2C)C(C(F)(F)F)C(F)(F)F)n1", "IC50": "> 1000 nM"}
{"COMPOUND": "CCOC(=O)[C@@H](C)C[C@H](Cc1ccccc1)NC(=O)c1csc([C@@H](C[C@H](C(C)C)N(C)C(=O)[C@@H](NC(=O)[C@H]2C[C@H](O)CCN2C)C(C)C)OC(C)=O)n1", "IC50": "4.88 nM"}
